Please respond with reported Activity for every item in the list.
Species: Oryctolagus cuniculus
Assay: In vitro biological activity on rabbit aorta strip.
Type: functional
Give bare numbers, in %.

# per-item lookup of Activity; items listed below
1. CNCC(=O)N[C@@H](CCCN=C(N)N)C(=O)N[C@H](C(=O)N[C@@H](Cc1ccc(S)cc1)C(=O)N[C@H](C(=O)N[C@@H](Cc1c[nH]cn1)C(=O)N1CCC[C@H]1C(=O)N[C@@H](Cc1ccccc1)C(=O)O)C(C)C)C(C)C
2. CNCC(=O)N[C@@H](CCCN=C(N)N)C(=O)N[C@H](C(=O)N[C@@H](Cc1ccc(S(N)(=O)=O)cc1)C(=O)N[C@H](C(=O)N[C@@H](Cc1c[nH]cn1)C(=O)N1CCC[C@H]1C(=O)N[C@@H](Cc1ccccc1)C(=O)O)C(C)C)C(C)C

Reply text:
[0.9, 3.2]
